molecular target: TraR (Agrobacterium tumefaciens); construct: These strains lack their AHL synthase (I) genes, but retain their native R genes; endogenous in cells; host or cells: A. tumefaciens WCF47 (Δ-traI) with PtraI-lacZ plasmid pCF372; assay: cell-based; conditions: 10 μM ligand; A. tumefaciens WCF47 (pCF372); normalized to OOHL
Sequence (P33905 whole entry): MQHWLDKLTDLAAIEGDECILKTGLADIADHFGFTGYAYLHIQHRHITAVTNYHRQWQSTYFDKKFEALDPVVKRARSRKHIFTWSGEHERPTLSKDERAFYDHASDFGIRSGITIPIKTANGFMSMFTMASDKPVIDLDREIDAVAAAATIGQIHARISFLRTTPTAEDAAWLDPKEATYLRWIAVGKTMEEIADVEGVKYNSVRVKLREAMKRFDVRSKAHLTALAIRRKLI
measured endpoint: A. tumefaciens-TraR Activation [%] (%)
Field: numeric (%). Do not append units.

>>> print(df.to_string())
                                   molecule                            target                   measured_endpoint  observed_result
0  O=C(CCCc1c[nH]c2ccccc12)N[C@H]1CCOC1=O [compound 9, indole AHL, reference compound]  TraR (Agrobacterium tumefaciens)  A. tumefaciens-TraR Activation [%]                0
1    CC(=O)c1ccc(OCC(=O)N[C@H]2CCOC2=O)cc1C  TraR (Agrobacterium tumefaciens)  A. tumefaciens-TraR Activation [%]                1
2          CCOC(=O)/C=C/C(=O)N[C@H]1CCOC1=O  TraR (Agrobacterium tumefaciens)  A. tumefaciens-TraR Activation [%]                0
3  O=C(Cc1ccc(N=Nc2ccccc2)cc1)NC1CCOC1=O (stereo not drawn)  TraR (Agrobacterium tumefaciens)  A. tumefaciens-TraR Activation [%]                0
4           O=C(CCCc1ccccc1)N[C@@H]1CCOC1=O  TraR (Agrobacterium tumefaciens)  A. tumefaciens-TraR Activation [%]                0
5  O=C(Cc1ccc(Br)cc1)N[C@H]1CCOC1=O [compound 8, reference compound]  TraR (Agrobacterium tumefaciens)  A. tumefaciens-TraR Activation [%]                1

Just so you know, measured A. tumefaciens-TraR Activation [%] for "O=C(Cc1c(F)c(F)c(F)c(F)c1F)N[C@H]1CCOC1=O" came out at 0

Just so you know, measured A. tumefaciens-TraR Activation [%] for "CC(C)(C)OC(=O)NCc1ccc(C(=O)N[C@H]2CCOC2=O)cc1" came out at 0

Just so you know, measured A. tumefaciens-TraR Activation [%] for O=C(CCCc1c[nH]c2ccccc12)N[C@H]1CCOC1=O [A18, indole AHL, reference compound] came out at 0

====

target: LasR (Pseudomonas aeruginosa); construct: expressed in transfected cells; host or cells: E. coli DH5α (pJN105L pSC11), arabinose-induced; assay: cell-based; settings: E. coli-LasR; Library C primary agonism screen
Entries and their measured Activation (%) follow.
Field: numeric (%). Do not append units.

Just so you know, measured Activation (%) for "O=C(Cc1ccc(C(F)(F)F)cc1)N[C@H]1CCOC1=O" came out at 0

Just so you know, measured Activation (%) for "O=C(Cc1ccc(-c2ccccc2)cc1)N[C@H]1CCOC1=O" came out at 0

Just so you know, measured Activation (%) for "CCOc1ccc(CC(=O)N[C@H]2CCOC2=O)cc1" came out at 0

Just so you know, measured Activation (%) for "COc1ccc(CC(=O)N[C@H]2CCOC2=O)cc1" came out at 0

====

Entries and their measured E. coli-LasR Activation [%] follow.
target: LasR (Pseudomonas aeruginosa, UniProt P25084); construct: expressed in transfected cells; host or cells: E. coli DH5α (pJN105L pSC11), arabinose-induced; test: cell-based; conditions: 5 μM ligand; E. coli DH5α (pJN105L pSC11); normalized to OdDHL
Sequence (P25084 whole entry): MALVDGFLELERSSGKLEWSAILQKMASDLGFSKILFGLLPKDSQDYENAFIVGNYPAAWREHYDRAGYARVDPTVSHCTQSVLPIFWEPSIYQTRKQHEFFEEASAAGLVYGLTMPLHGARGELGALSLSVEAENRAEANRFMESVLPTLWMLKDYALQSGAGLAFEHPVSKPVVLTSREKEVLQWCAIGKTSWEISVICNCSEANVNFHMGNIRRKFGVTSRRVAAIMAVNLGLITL
Field: numeric (%). Do not append units.

>>> df
                                   molecule            measured_endpoint  observed_result
0  O=C(Cc1ccccc1[N+](=O)[O-])N[C@H]1CCOC1=O  E. coli-LasR Activation [%]                0
1    CC(C)(C)OC(=O)NCCCCC(=O)N[C@H]1CCOC1=O  E. coli-LasR Activation [%]                3
2               O=C(CC1CCCC1)N[C@H]1CCOC1=O  E. coli-LasR Activation [%]                0
3    CC(=O)c1ccc(OCC(=O)N[C@H]2CCOC2=O)cc1C  E. coli-LasR Activation [%]                0

Just so you know, measured E. coli-LasR Activation [%] for "O=C(CCCc1c[nH]c2ccccc12)N[C@@H]1CCOC1=O" came out at 0

Just so you know, measured E. coli-LasR Activation [%] for "O=C(Cc1c(F)c(F)c(F)c(F)c1F)N[C@H]1CCOC1=O" came out at 2

Just so you know, measured E. coli-LasR Activation [%] for "CCCCCCCCCCCS(=O)(=O)N[C@H]1CCOC1=O" came out at 0

Just so you know, measured E. coli-LasR Activation [%] for O=C(CCCc1c[nH]c2ccccc12)N[C@H]1CCOC1=O [A18, indole AHL, reference compound] came out at 3

Just so you know, measured E. coli-LasR Activation [%] for "COc1ccc(CC(=O)N[C@H]2CCOC2=O)cc1" came out at 0

Just so you know, measured E. coli-LasR Activation [%] for O=C(CC(=O)N[C@@H]1CCOC1=O)Cc1ccccc1 [B2] came out at 84
